Measured CC50 at 4 day by item
- PROTOCOL NOTES: Compound cytotoxicity, XTT-based colorimetric assay
- Format: cell-based
- PARTICULARS: human, uninfected MT2 cells, day 4, XTT

Example molecules with recorded CC50 at 4 day:
O=C(Cn1ccc(C2CC2)n1)N[C@@H](Cc1cc(F)cc(F)c1)c1nc2cc(-c3ccc(-c4ccccc4)cc3)ccc2c(=O)n1-c1ccc(S(=O)(=O)N2CCOCC2)cc1 = > 500 nM
Cc1cccc(-c2ccc3c(=O)n(-c4ccc(Cl)c5c(NS(C)(=O)=O)nn(CC(F)F)c45)c([C@H](Cc4cc(F)cc(F)c4)NC(=O)Cn4nc(C(F)F)c5c4C(F)(F)[C@@H]4C[C@H]54)nc3c2)n1 = > 500 nM

Please examine the following record next.
Input line: Please indicate CC50 at 4 day recorded for Cn1nc(NS(C)(=O)=O)c2c(Cl)ccc(-n3c([C@H](Cc4cc(F)cc(F)c4)NC(=O)Cn4nc(C(F)F)c5c4C(F)(F)[C@@H]4C[C@H]54)nc4cc(-c5ccccc5F)ccc4c3=O)c21 (single isomer, unassigned)
Output line: > 1000 nM
